Molecular target: T1, Bdf1 bromodomain 1 (GST-tagged, WT) (Saccharomyces cerevisiae (strain ATCC …, UniProt P35817))
T1 chain: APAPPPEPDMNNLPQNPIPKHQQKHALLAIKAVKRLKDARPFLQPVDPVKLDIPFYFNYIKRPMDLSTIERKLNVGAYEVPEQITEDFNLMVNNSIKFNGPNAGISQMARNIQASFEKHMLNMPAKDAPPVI
Assay: histone peptide array probed with recombinant GST-bromodomain, signal normalised to myc peptide control
Non-standard residues stand in square brackets, D forms with d. No end group written: not given here. Arg(Me2a) = CN(C)C(=N)NCCC[C@H](N)C(=O)O; Arg(Me2s) = CN=C(NC)NCCC[C@H](N)C(=O)O; Lys(Me2) = CN(C)CCCC[C@H](N)C(=O)O; Lys(Me) = CNCCCC[C@H](N)C(=O)O
binding score by entry:
observed.property: binding score

>>> measured_result("ARTK(Ac)QTA[Arg(Me2s)][Lys(Me)]STGGKAPRKQ")
0.0242
>>> measured_result("ARTKQTARKSTGGKAPRKQ (A Rme2a T Kme1 Q T A R Kme2 S T G G K A P R K Q)")
0.00538
>>> measured_result("ARTKQTARKSTGGKAPRKQ (A R T K Q T A R K pS T G G Kac A P R K Q)")
0.0299
>>> measured_result("ART[Lys(Me)]QTA[Arg(Me2s)][Lys(Me)]STGGKAPRKQ")
0.0199
>>> measured_result("ARTKQTARKSTGGKAPRKQ (A Rme2a T Kme2 Q T A Rme2s Kac S T G G K A P R K Q)")
0.0213
>>> measured_result("ARTKQTARKSTGGKAPRKQ (A R T Kme1 Q T A Rme2s Kac S T G G K A P R K Q)")
0.0247
>>> measured_result("A[Arg(Me2a)]T[Lys(Me2)]QTARKSTGGKAPRKQ")
0.00161
